- target-or-test-system: GABARAPL2 (Homo sapiens, UniProt P60520)
- Sequence (P60520 whole entry): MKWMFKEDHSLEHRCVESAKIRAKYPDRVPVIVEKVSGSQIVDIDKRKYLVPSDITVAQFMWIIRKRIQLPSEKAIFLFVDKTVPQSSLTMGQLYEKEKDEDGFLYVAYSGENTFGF
- study-conditions: residue C15; GABARAPL2:ligand molar ratio 1:2
CSP values, listed per item
value-kind: CSP (ppm)

>>> quantitative_result("O=c1cc(-c2ccccc2)c2c(O)cc(O)cc2o1")
0.005
>>> quantitative_result("O=C1Nc2ccc(I)cc2C1=Cc1cc(Br)c(O)c(Br)c1")
0.019
>>> quantitative_result("Cc1ccc(C(=O)N(CCCN)[C@@H](c2nc3cc(Cl)ccc3c(=O)n2Cc2ccccc2)C(C)C)cc1")
0.004
>>> quantitative_result("O=C1Nc2ccc(Br)cc2C1=Cc1cc(O)c(O)c(Br)c1")
0.010

----------
- target-or-test-system: GABARAPL2 (Homo sapiens)
- study-conditions: residue I21; GABARAPL2:ligand molar ratio 1:2
value-kind: CSP (ppm)

>>> quantitative_result("O=C1Nc2ccc(Br)cc2C1=Cc1cc(O)c(O)c(Br)c1")
0.013
>>> quantitative_result("O=c1cc(-c2ccccc2)c2c(O)cc(O)cc2o1")
0.005
>>> quantitative_result("O=C1Nc2ccc(I)cc2C1=Cc1cc(Br)c(O)c(Br)c1")
0.054
>>> quantitative_result("Cc1ccc(C(=O)N(CCCN)[C@@H](c2nc3cc(Cl)ccc3c(=O)n2Cc2ccccc2)C(C)C)cc1")
0.00184

----------
CSP values, listed per item
- target-or-test-system: GABARAPL2 (Homo sapiens)
- study-conditions: residue S39; GABARAPL2:ligand molar ratio 1:2
value-kind: CSP

>>> result("O=c1cc(-c2ccccc2)c2c(O)cc(O)cc2o1 [compound 2]")
"0.00356 ppm"
>>> result("O=C1Nc2ccc(Br)cc2C1=Cc1cc(O)c(O)c(Br)c1 [compound 1]")
"0.003 ppm"
>>> result("O=C1Nc2ccc(I)cc2C1=Cc1cc(Br)c(O)c(Br)c1 [compound 4]")
"0.017 ppm"
>>> result("Cc1ccc(C(=O)N(CCCN)[C@@H](c2nc3cc(Cl)ccc3c(=O)n2Cc2ccccc2)C(C)C)cc1 [compound 3]")
"0.00232 ppm"

----------
- target-or-test-system: GABARAPL2 (Homo sapiens)
- study-conditions: residue I32; GABARAPL2:ligand molar ratio 1:2
CSP values, listed per item
value-kind: CSP

>>> result("Cc1ccc(C(=O)N(CCCN)[C@@H](c2nc3cc(Cl)ccc3c(=O)n2Cc2ccccc2)C(C)C)cc1 [compound 3]")
"0.00354 ppm"
>>> result("O=C1Nc2ccc(I)cc2C1=Cc1cc(Br)c(O)c(Br)c1 [compound 4]")
"0.057 ppm"
>>> result("O=C1Nc2ccc(Br)cc2C1=Cc1cc(O)c(O)c(Br)c1 [compound 1]")
"0.024 ppm"
>>> result("O=c1cc(-c2ccccc2)c2c(O)cc(O)cc2o1 [compound 2]")
"0.005 ppm"

----------
CSP values, listed per item
- target-or-test-system: GABARAPL2 (Homo sapiens)
- study-conditions: residue L105; GABARAPL2:ligand molar ratio 1:2
value-kind: CSP (ppm)

>>> quantitative_result("O=C1Nc2ccc(Br)cc2C1=Cc1cc(O)c(O)c(Br)c1")
0.027
>>> quantitative_result("O=C1Nc2ccc(I)cc2C1=Cc1cc(Br)c(O)c(Br)c1")
0.060
>>> quantitative_result("O=c1cc(-c2ccccc2)c2c(O)cc(O)cc2o1")
0.00636
>>> quantitative_result("Cc1ccc(C(=O)N(CCCN)[C@@H](c2nc3cc(Cl)ccc3c(=O)n2Cc2ccccc2)C(C)C)cc1")
0.00283

----------
- target-or-test-system: GABARAPL2 (Homo sapiens, UniProt P60520)
- study-conditions: residue Q40; GABARAPL2:ligand molar ratio 1:2
value-kind: CSP (ppm)

>>> quantitative_result("Cc1ccc(C(=O)N(CCCN)[C@@H](c2nc3cc(Cl)ccc3c(=O)n2Cc2ccccc2)C(C)C)cc1 [compound 3]")
0.00659
>>> quantitative_result("O=C1Nc2ccc(I)cc2C1=Cc1cc(Br)c(O)c(Br)c1 [compound 4]")
0.017
>>> quantitative_result("O=C1Nc2ccc(Br)cc2C1=Cc1cc(O)c(O)c(Br)c1 [compound 1]")
0.000721
>>> quantitative_result("O=c1cc(-c2ccccc2)c2c(O)cc(O)cc2o1 [compound 2]")
0.0017

----------
- target-or-test-system: GABARAPL2 (Homo sapiens, UniProt P60520)
- study-conditions: residue P26; estimated; GABARAPL2:ligand molar ratio 1:2
CSP values, listed per item
value-kind: CSP (ppm)

>>> quantitative_result("O=C1Nc2ccc(I)cc2C1=Cc1cc(Br)c(O)c(Br)c1")
0.050
>>> quantitative_result("O=c1cc(-c2ccccc2)c2c(O)cc(O)cc2o1")
0.005
>>> quantitative_result("Cc1ccc(C(=O)N(CCCN)[C@@H](c2nc3cc(Cl)ccc3c(=O)n2Cc2ccccc2)C(C)C)cc1")
0.002
>>> quantitative_result("O=C1Nc2ccc(Br)cc2C1=Cc1cc(O)c(O)c(Br)c1")
0.020

----------
CSP values, listed per item
- target-or-test-system: GABARAPL2 (Homo sapiens)
- study-conditions: residue F77; GABARAPL2:ligand molar ratio 1:2
value-kind: CSP (ppm)

>>> quantitative_result("Cc1ccc(C(=O)N(CCCN)[C@@H](c2nc3cc(Cl)ccc3c(=O)n2Cc2ccccc2)C(C)C)cc1")
0.000283
>>> quantitative_result("O=c1cc(-c2ccccc2)c2c(O)cc(O)cc2o1")
0.00281
>>> quantitative_result("O=C1Nc2ccc(I)cc2C1=Cc1cc(Br)c(O)c(Br)c1")
0.006
>>> quantitative_result("O=C1Nc2ccc(Br)cc2C1=Cc1cc(O)c(O)c(Br)c1")
0.00374

----------
- target-or-test-system: GABARAPL2 (Homo sapiens, UniProt P60520)
- study-conditions: residue E96; GABARAPL2:ligand molar ratio 1:2
CSP values, listed per item
value-kind: CSP

>>> result("O=C1Nc2ccc(I)cc2C1=Cc1cc(Br)c(O)c(Br)c1 [compound 4]")
"0.019 ppm"
>>> result("O=C1Nc2ccc(Br)cc2C1=Cc1cc(O)c(O)c(Br)c1 [compound 1]")
"0.00425 ppm"
>>> result("O=c1cc(-c2ccccc2)c2c(O)cc(O)cc2o1 [compound 2]")
"0.004 ppm"
>>> result("Cc1ccc(C(=O)N(CCCN)[C@@H](c2nc3cc(Cl)ccc3c(=O)n2Cc2ccccc2)C(C)C)cc1 [compound 3]")
"0.000707 ppm"

----------
CSP values, listed per item
- target-or-test-system: GABARAPL2 (Homo sapiens, UniProt P60520)
- study-conditions: residue R65; GABARAPL2:ligand molar ratio 1:2
value-kind: CSP (ppm)

>>> quantitative_result("Cc1ccc(C(=O)N(CCCN)[C@@H](c2nc3cc(Cl)ccc3c(=O)n2Cc2ccccc2)C(C)C)cc1 [compound 3]")
0.0022
>>> quantitative_result("O=C1Nc2ccc(Br)cc2C1=Cc1cc(O)c(O)c(Br)c1 [compound 1]")
0.00158
>>> quantitative_result("O=c1cc(-c2ccccc2)c2c(O)cc(O)cc2o1 [compound 2]")
0.0019
>>> quantitative_result("O=C1Nc2ccc(I)cc2C1=Cc1cc(Br)c(O)c(Br)c1 [compound 4]")
0.008

----------
- target-or-test-system: GABARAPL2 (Homo sapiens, UniProt P60520)
- study-conditions: residue I41; GABARAPL2:ligand molar ratio 1:2
value-kind: CSP (ppm)

>>> quantitative_result("Cc1ccc(C(=O)N(CCCN)[C@@H](c2nc3cc(Cl)ccc3c(=O)n2Cc2ccccc2)C(C)C)cc1")
0.011
>>> quantitative_result("O=C1Nc2ccc(I)cc2C1=Cc1cc(Br)c(O)c(Br)c1")
0.00428
>>> quantitative_result("O=c1cc(-c2ccccc2)c2c(O)cc(O)cc2o1")
0.007
>>> quantitative_result("O=C1Nc2ccc(Br)cc2C1=Cc1cc(O)c(O)c(Br)c1")
0.011

----------
viability at 20 µM values, listed per item
- measurement-description: Cell viability measurements
- Assay type: cell-based
- study-conditions: log concentration [M] -4.69897; two replicate columns
value-kind: viability at 20 µM (%)

>>> quantitative_result("Cc1ccc(C(=O)N(CCCN)[C@@H](c2nc3cc(Cl)ccc3c(=O)n2Cc2ccccc2)C(C)C)cc1")
0.689
>>> quantitative_result("O=C1Nc2ccc(I)cc2C1=Cc1cc(Br)c(O)c(Br)c1")
104

----------
CSP values, listed per item
- target-or-test-system: GABARAPL2 (Homo sapiens)
- study-conditions: residue D100; GABARAPL2:ligand molar ratio 1:2
value-kind: CSP

>>> result("O=c1cc(-c2ccccc2)c2c(O)cc(O)cc2o1")
"0.00367 ppm"
>>> result("Cc1ccc(C(=O)N(CCCN)[C@@H](c2nc3cc(Cl)ccc3c(=O)n2Cc2ccccc2)C(C)C)cc1")
"0.00228 ppm"
>>> result("O=C1Nc2ccc(Br)cc2C1=Cc1cc(O)c(O)c(Br)c1")
"0.002 ppm"
>>> result("O=C1Nc2ccc(I)cc2C1=Cc1cc(Br)c(O)c(Br)c1")
"0.018 ppm"

The values you see were collected from paper PMC11589570.
